- protocol-summary: in vitro
- study-conditions: Nanoclick permeability assay EC50
Positions of bridges follow the written chain, without caps; N, C: chain ends. Non-standard residues stand in square brackets, D forms with d. Residues, ends and D or L forms follow the SMILES beside them. Lys(N3) = [N-]=[N+]=NCCCC[C@H](N)C(=O)O; R8 = C=CCCCCCC[C@@](C)(N)C(=O)O; Cba = N[C@@H](CC1CCC1)C(=O)O; S5 = C=CCCC[C@](C)(N)C(=O)O; βAla = NCCC(=O)O
Items are presented alongside their recorded cell entry EC50.

molecule	result-modifier	cell entry EC50 / µM
CC(=O)N[C@@H](CCCCN=[N+]=[N-])C(=O)NCCC(=O)N[C@H](C)C(=O)N[C@H](C(=O)N[C@@H](Cc1ccccc1)C(=O)N[C@]1(C)CCCCCCC=CCCC[C@@](C)(C(=O)N[C@@H](CO)C(=O)N[C@@H](C)C(=O)N[C@@H](C)C(N)=O)NC(=O)[C@H](CC2CCC2)NC(=O)[C@H](CCC(N)=O)NC(=O)[C@H](C)NC(=O)[C@H](Cc2c[nH]c3ccccc23)NC(=O)[C@H](Cc2ccc(O)cc2)NC(=O)[C@H](CCC(=O)O)NC1=O)[C@@H](C)O	>	10
CC(=O)N[C@@H](CCCCN=[N+]=[N-])C(=O)NCCC(=O)N[C@@H](CC(C)C)C(=O)N[C@H](C(=O)N[C@@H](Cc1ccccc1)C(=O)N[C@]1(C)CCCCCCC=CCCC[C@@](C)(C(=O)N[C@@H](CO)C(=O)N[C@@H](C)C(=O)N[C@@H](C)C(N)=O)NC(=O)[C@H](CC2CCC2)NC(=O)[C@H](CCC(N)=O)NC(=O)[C@H](C)NC(=O)[C@H](Cc2c[nH]c3ccccc23)NC(=O)[C@H](Cc2ccccc2)NC(=O)[C@H](CCC(=O)O)NC1=O)[C@@H](C)O [MP-028] (Ac-[Lys(N3)][βAla]LTF[R8]EFWAQ[Cba][S5]SAA-NH2; staple 6-13)	=	0.0464

* * *

- protocol-summary: Lactate dehydrogenase (LDH) release assay
- Format: cell-based
- study-conditions: LDH: Cytotoxicity assay: EC50
Positions of bridges follow the written chain, without caps; N, C: chain ends. Non-standard residues stand in square brackets, D forms with d. Residues, ends and D or L forms follow the SMILES beside them. R8 = C=CCCCCCC[C@@](C)(N)C(=O)O; Cba = N[C@@H](CC1CCC1)C(=O)O; S5 = C=CCCC[C@](C)(N)C(=O)O
observed-property: EC50

compound	assay-value
CC(=O)N[C@@H](CC(C)C)C(=O)N[C@H](C(=O)N[C@@H](Cc1ccccc1)C(=O)N[C@]1(C)CCCCCCC=CCCC[C@@](C)(C(=O)N[C@@H](CO)C(=O)N[C@@H](C)C(=O)N[C@@H](C)C(N)=O)NC(=O)[C@H](CC2CCC2)NC(=O)[C@H](CCC(N)=O)NC(=O)[C@H](CCC(N)=O)NC(=O)[C@H](Cc2c[nH]c3ccccc23)NC(=O)[C@H](Cc2ccc(O)cc2)NC(=O)[C@H](CCC(=O)O)NC1=O)[C@@H](C)O [MP-864] (Ac-LTF[R8]EYWQQ[Cba][S5]SAA-NH2; staple 4-11)	> 50.6 µM

* * *

- protocol-summary: Lactate dehydrogenase (LDH) release assay
- Assay type: cell-based
- study-conditions: LDH: Cytotoxicity assay EC50
pEC50: −log10 of the molar value. Positions of bridges follow the written chain, without caps; N, C: chain ends. Non-standard residues stand in square brackets, D forms with d. Residues, ends and D or L forms follow the SMILES beside them. R8 = C=CCCCCCC[C@@](C)(N)C(=O)O; Cba = N[C@@H](CC1CCC1)C(=O)O; R5 = C=CCCC[C@@](C)(N)C(=O)O; S5 = C=CCCC[C@](C)(N)C(=O)O

compound	pEC50
CC(=O)N[C@H](C(=O)N[C@@H](CO)C(=O)N[C@@H](Cc1ccccc1)C(=O)N[C@]1(C)CCCC=CCCC[C@](C)(C(=O)N[C@@H](CC(C)C)C(=O)N[C@@H](CC(C)C)C(=O)N[C@@H](CO)C(=O)N[C@@H](CCC(=O)O)C(=O)N[C@@H](CC(N)=O)C(=O)N[C@@H](Cc2ccccc2)C(N)=O)NC(=O)[C@H](Cc2c[nH]c3ccccc23)NC(=O)[C@H](Cc2ccc(O)cc2)NC(=O)[C@H](CCC(=O)O)NC1=O)[C@@H](C)O [MP-167] (Ac-TSF[R5]EYW[R5]LLSENF-NH2; staple 4-8)	4.59
CC(=O)N[C@@H](CC(C)C)C(=O)N[C@H](C(=O)N[C@@H](Cc1ccccc1)C(=O)NC(C)(C)C(=O)N[C@@H](CCC(=O)O)C(=O)N[C@@H](Cc1ccc(O)cc1)C(=O)N[C@@H](Cc1c[nH]c2ccccc12)C(=O)N[C@@H](CCC(N)=O)C(=O)N[C@@H](CC(C)C)C(=O)N[C@@H](CC1CCC1)C(=O)NC(C)(C)C(=O)N[C@@H](CO)C(=O)N[C@@H](C)C(=O)N[C@@H](C)C(N)=O)[C@@H](C)O	< 4.30
CC(=O)N[C@@H](Cc1ccccc1)C(=O)N[C@]1(C)CCCCCCC=CCCC[C@@](C)(C(=O)N[C@@H](CO)C(=O)N[C@@H](C)C(=O)N[C@@H](C)C(N)=O)NC(=O)[C@H](CC2CCC2)NC(=O)[C@H](CC(C)C)NC(=O)[C@H](CCC(N)=O)NC(=O)[C@H](Cc2c[nH]c3ccccc23)NC(=O)[C@H](Cc2ccc(O)cc2)NC(=O)[C@H](CCC(=O)O)NC1=O [MP-1202] (Ac-F[R8]EYWQL[Cba][S5]SAA-NH2; staple 2-9)	< 4.30
CC(=O)N1CCC[C@H]1C(=O)N[C@@H](CCCNC(=N)N)C(=O)N[C@@H](Cc1ccccc1)C(=O)N[C@]1(C)CCCCCCC=CCCC[C@@](C)(C(N)=O)NC(=O)[C@H](CC(C)C)NC(=O)[C@H](CCCNC(=N)N)NC(=O)[C@H](Cc2ccc(O)cc2)NC(=O)[C@H](Cc2c[nH]c3ccccc23)NC(=O)[C@H](Cc2ccc(O)cc2)NC(=O)[C@H](CCC(=O)O)NC1=O [MP-2032] (Ac-PRF[R8]EYWYRL[S5]-NH2; staple 4-11)	< 4.30
CC(=O)N[C@@H](CC(C)C)C(=O)N[C@H](C(=O)N[C@@H](Cc1ccccc1)C(=O)N[C@]1(C)CCCCCCC=CCCC[C@@](C)(C(=O)N[C@@H](CO)C(N)=O)NC(=O)[C@H](CC2CCC2)NC(=O)[C@H](CC(C)C)NC(=O)[C@H](CCC(N)=O)NC(=O)[C@H](Cc2c[nH]c3ccccc23)NC(=O)[C@H](Cc2ccc(O)cc2)NC(=O)[C@H](CCC(=O)O)NC1=O)[C@@H](C)O [MP-204] (Ac-LTF[R8]EYWQL[Cba][S5]S-NH2; staple 4-11)	< 4.30
CC(=O)N[C@H](C(=O)N[C@@H](CO)C(=O)N[C@@H](Cc1ccccc1)C(=O)N[C@]1(C)CCCCCCC=CCCC[C@@](C)(C(=O)N[C@@H](CCC(N)=O)C(=O)N[C@@H](CC(N)=O)C(=O)N[C@@H](Cc2ccccc2)C(N)=O)NC(=O)[C@H](CC(C)C)NC(=O)[C@H](CC(C)C)NC(=O)[C@H](C)NC(=O)[C@H](Cc2c[nH]c3ccccc23)NC(=O)[C@H](Cc2ccc(O)cc2)NC(=O)[C@H](CCC(=O)O)NC1=O)[C@@H](C)O	< 4.30
CC(=O)N[C@@H](Cc1c[nH]cn1)C(=O)N[C@H](C(=O)N[C@@H](Cc1ccccc1)C(=O)N[C@]1(C)CCCCCCC=CCCC[C@@](C)(C(=O)N[C@@H](CO)C(=O)N[C@@H](C)C(=O)N[C@@H](C)C(N)=O)NC(=O)[C@H](CC2CCC2)NC(=O)[C@H](CC(C)C)NC(=O)[C@H](CCC(N)=O)NC(=O)[C@H](Cc2c[nH]c3ccccc23)NC(=O)[C@H](Cc2ccc(O)cc2)NC(=O)[C@H](CCC(=O)O)NC1=O)[C@@H](C)O [MP-197, ATSP-7041 (L1H)] (Ac-HTF[R8]EYWQL[Cba][S5]SAA-NH2; staple 4-11)	< 4.30
CC(=O)N[C@H](C(=O)N[C@@H](CO)C(=O)N[C@@H](Cc1ccccc1)C(=O)N[C@]1(C)CCCCCCC=CCCC[C@@](C)(C(=O)N[C@@H](CCC(=O)O)C(=O)N[C@@H](CC(N)=O)C(=O)N[C@@H](Cc2ccccc2)C(N)=O)NC(=O)[C@H](CC(C)C)NC(=O)[C@H](CC(C)C)NC(=O)[C@H](C)NC(=O)[C@H](Cc2c[nH]c3ccccc23)NC(=O)[C@H](Cc2ccc(O)cc2)NC(=O)[C@H](CCC(=O)O)NC1=O)[C@@H](C)O	4.47
CC(=O)N[C@@H](Cc1c[nH]cn1)C(=O)N[C@@H](Cc1c[nH]cn1)C(=O)N[C@@H](Cc1c[nH]cn1)C(=O)NCCCCCC(=O)N[C@H](C(=O)N[C@@H](CO)C(=O)N[C@@H](Cc1ccccc1)C(=O)N[C@]1(C)CCCCCCC=CCCC[C@@](C)(C(N)=O)NC(=O)[C@H](CC(C)C)NC(=O)[C@H](CC(C)C)NC(=O)[C@H](C)NC(=O)[C@H](Cc2c[nH]c3ccccc23)NC(=O)[C@H](Cc2ccc(O)cc2)NC(=O)[C@H](CCC(=O)O)NC1=O)[C@@H](C)O	4.55
